Measurement Target: CDK2 (Homo sapiens, UniProt P24941)
Construct: host or cells: HEK293-CDK2-Hibit
Measurement Notes: HiBit Assay Protocol for CDK2 (HIBIT protein quantification, degradation)
Assay type: cell-based
Condition Details: HEK293-CDK2-Hibit cells, compound treatment for 6 hours
# cutoff 60% applies to CDK2 HIBIT Protein Quantification Maximum; >= gives condition met, < gives condition not met

Past entries and their recorded results:
>>> class_assignment("Cn1c(=O)n(C2CCC(=O)NC2=O)c2cccc(N3CCN(Cc4cccc(S(=O)(=O)N5CCC(Nc6ncc7c(n6)N([C@@H]6CCC[C@@H](O)C6)C(=O)C76CC6)CC5)c4)CC3)c21 (some centres unmarked)")
"condition met"
>>> class_assignment("CC1CCCC1N1C(=O)C2(CC2)c2cnc(NC3CCN(S(=O)(=O)N4CCC5(CCCN5C(=O)CCCCc5cccc6c5n(C)c(=O)n6C5CCC(=O)NC5=O)C4)CC3)nc21 (centres unmarked)")
"condition met"
>>> class_assignment("Cn1nc(N2CCC(=O)NC2=O)c2ccc(C3CCN(Cc4cccc(S(=O)(=O)N5CCC(Nc6ncc7c(n6)N([C@@H]6CCC[C@@H](O)C6)C(=O)C76CCC6)CC5)c4)CC3)cc21")
"condition met"

# ---- query molecule ----
Quick check, CDK2 HIBIT Protein Quantification Maximum >= 60%? CC1CCCC1N1C(=O)C2(CC2)c2cnc(NC3CCN(S(=O)(=O)N4CCC(CN5CCC(c6cccc7c6n(C)c(=O)n7C6CCC(=O)NC6=O)CC5)CC4)CC3)nc21 (centres unmarked) condition not met
